Origin of the recorded values: paper PMC7169845

Readout type: melting point

1. Cc1ccc(-n2cc(Cn3c(C(CC(C)C)N4C(=O)c5ccc(C)cc5C4=O)nc4ccccc43)nn2)cc1 (stereo not shown) [6b] : 160 to 162 °C

The recorded melting point for CC(C)CC(c1nc2ccccc2n1Cc1cn(-c2c(F)cccc2F)nn1)N1C(=O)c2ccccc2C1=O (stereo not shown) [6p] is 198 to 200 °C

melting point recorded for this molecule, Cc1ccc(-n2cc(Cn3c(C(C)N4C(=O)c5ccc(C)cc5C4=O)nc4ccccc43)nn2)cc1 (stereo not shown) [6i’] , is 216 to 218 °C

Noted for Cc1ccc2c(c1)C(=O)N(C(CC(C)C)c1nc3ccccc3n1Cc1cn(-c3c(F)c(F)c(F)c(F)c3F)nn1)C2=O (stereo not shown) [6d] : its melting point reads 128 to 130 °C
